system: Protein phosphatase methylesterase 1 (Homo sapiens)
protocol: PME-1 inhibitors in HeLa proteome, late-stage follow-up, selectivity assay, cell lysate, gel-based competitive ABPP, fluorescence, powder samples (AID 463149);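 further: 0% = DMSO-treated band intensity and 100% = blank gel background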
experimentalParameters: HeLa soluble proteome, FP-Rh fluorescence, PME-1, inhibition, at 20 µM, stronger effect = higher value
attributeMeasured: inhibition (%)
Give the quantity in %, number only.

>>> df
                          structureassmiles                                    system  unitsymbol  reported
0  CC[C@@]1(c2cccc(C)c2)C(=O)N(C(=O)OC)N1C(=O)OC  Protein phosphatase methylesterase 1 (Homo sapiens)           %       100
1  CCOC(=O)N1C(=O)[C@](CC)(c2ccccc2)N1C(=O)OCC  Protein phosphatase methylesterase 1 (Homo sapiens)           %       100
2  CC[C@@]1(c2ccccc2C)C(=O)N(C(=O)OC)N1C(=O)OC  Protein phosphatase methylesterase 1 (Homo sapiens)           %       100
3  CC[C@]1(c2ccccc2C)C(=O)N(C(=O)OC)N1C(=O)OC  Protein phosphatase methylesterase 1 (Homo sapiens)           %       100
4  CC[C@]1(c2ccccc2)C(=O)N(C(=O)OC)N1C(=O)OC  Protein phosphatase methylesterase 1 (Homo sapiens)           %       100

Asked: Reported inhibition, compound COC(=O)N1C(=O)[C@@](c2ccccc2)(C2CCCC2)N1C(=O)OC : ____
Given back: 100

Asked: Okay, and COC(=O)N1C(=O)[C@](Cc2ccccc2)(c2ccccc2)N1C(=O)OC ?
Given back: 100

Asked: Consider next the compound CCOC(=O)N1C(=O)[C@@](c2ccc(Cl)cc2)(C(C)C)N1C(=O)OCC in the same way.
Given back: 0

Asked: Same read-out for COC(=O)N1C(=O)[C@](CC(C)C)(c2ccccc2)N1C(=O)OC ?
Given back: 100

Asked: Same question, COC(=O)N1C(=O)[C@@](c2ccccc2)(C(C)C)N1C(=O)OC this time
Given back: 100

###

The reader will find reported inhibition values listed item by item below.
system: Acylamino-acid-releasing enzyme (Homo sapiens) (UniProt P13798)
Sequence (P13798 whole entry, looked up): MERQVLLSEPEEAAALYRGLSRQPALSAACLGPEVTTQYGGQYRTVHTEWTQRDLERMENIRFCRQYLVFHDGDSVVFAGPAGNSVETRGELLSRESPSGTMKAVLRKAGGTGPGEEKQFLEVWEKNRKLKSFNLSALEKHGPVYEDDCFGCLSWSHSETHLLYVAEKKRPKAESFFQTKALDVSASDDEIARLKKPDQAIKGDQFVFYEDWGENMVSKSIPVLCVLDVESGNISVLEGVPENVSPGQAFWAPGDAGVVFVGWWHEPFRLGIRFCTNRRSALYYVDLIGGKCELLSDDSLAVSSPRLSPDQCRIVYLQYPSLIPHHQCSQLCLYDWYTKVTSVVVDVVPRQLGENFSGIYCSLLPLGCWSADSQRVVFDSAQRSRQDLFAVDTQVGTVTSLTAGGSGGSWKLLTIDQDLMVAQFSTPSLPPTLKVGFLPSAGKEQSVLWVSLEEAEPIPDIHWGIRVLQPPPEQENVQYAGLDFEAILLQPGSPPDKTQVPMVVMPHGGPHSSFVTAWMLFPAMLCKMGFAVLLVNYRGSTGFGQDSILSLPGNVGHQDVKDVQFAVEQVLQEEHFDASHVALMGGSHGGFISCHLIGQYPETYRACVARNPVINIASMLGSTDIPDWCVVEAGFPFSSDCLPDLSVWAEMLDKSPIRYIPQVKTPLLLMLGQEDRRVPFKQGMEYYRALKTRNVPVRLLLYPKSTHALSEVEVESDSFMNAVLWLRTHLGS
protocol: PME-1 inhibitors in HeLa proteome, late-stage follow-up, selectivity assay, cell lysate, gel-based competitive ABPP, fluorescence, powder samples (AID 463149);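 further: 0% = DMSO-treated band intensity and 100% = blank gel background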
experimentalParameters: HeLa soluble proteome, FP-Rh fluorescence, measured here: Anti-Target APEH, at 1 µM, stronger effect = higher value
Field format: number, assumed %, no unit text.

In [3]: df
Out[3]:
                          structureassmiles  unitsymbol  reported
0  COC(=O)N1C(=O)[C@@](c2ccccc2)(C2CCCC2)N1C(=O)OC           %         0
1  COC(=O)N1C(=O)[C@](c2ccccc2)(C2CCCC2)N1C(=O)OC           %         0
2  COC(=O)N1C(=O)[C@@](c2ccccc2)(C(C)C)N1C(=O)OC           %         0

Asked: # lookup: inhibition of CC[C@]1(c2ccccc2)C(=O)N(C(=O)OC)N1C(=O)OC
Given back: 0

Asked: Then what about the molecule CC[C@]1(c2cccc(C)c2)C(=O)N(C(=O)OC)N1C(=O)OC ?
Given back: 0

Asked: Repeat for the following molecule: COC(=O)N1C(=O)[C@](c2ccc(OC)cc2)(C(C)C)N1C(=O)OC
Given back: 0
